FYI, the data here is from patent US20260140098A1.

testSummary: Stability of (7aS,2′S)-2-oxo-clopidogrel in plasma, screening of TCEP dosage (Example 4)
Type: in vitro ADME
assayConditions: plasma containing TCEP 10 mg/ml, TCEP 10 mg/ml; theoretical 0.1 ng/mL; on ice; 0 min; read-out: Recovery rate
measuredMetric: recovery at 0 min, 0.1 ng/mL (%)
Please reply with the bare figure in % and do not write the unit itself.

Input line: Quick one: recovery at 0 min, 0.1 ng/mL for COC(=O)[C@H](c1ccccc1Cl)N1CC[C@@H]2SC(=O)C=C2C1 [(7aS,2′S)-2-oxo-clopidogrel] ?
Output line: 96.5

====

testSummary: Stability of (7aS,2′S)-2-oxo-clopidogrel in plasma, screening of TCEP dosage (Example 4)
Format: in vitro ADME
assayConditions: plasma, TCEP 50 mg/ml; theoretical 12.0 ng/mL; on ice; 60 min; read-out: Recovery rate
Procedure: S2. […] ESI ion source, positive ion detection in multiple reaction monitoring mode (MRM); the quantitatively analyzed ions (7aS,2′S)-2-oxo-clopidogrel: m/z 338.100→155.000, IS: m/z 341.100→158.000, a capillary voltage of 4.0 KV, a cone voltage of 25 V, a desolvation gas temperature of 400° C. and a source temperature of 150° C. […]
measuredMetric: recovery at 60 min, 12 ng/mL (%)
Return type: number; implicit unit %.

Input line: I would be grateful if you could share the reported recovery at 60 min, 12 ng/mL for COC(=O)[C@H](c1ccccc1Cl)N1CC[C@@H]2SC(=O)C=C2C1 .
Output line: 99.2
